B1: TRIM29 (parent)
chain: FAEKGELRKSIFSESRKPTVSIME

- Variants of: B1
- method.notes: protein stability index of a GFP-peptide fusion (GPS, HEK-293T) (PSI 1-6); higher = more stable;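 note: lentivirally expressed fusions sorted by FACS into six bins by GFP to DsRed ratio, PSI derived from sequencing read proportions per bin multiplied by bin number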
- recorded.conditions: c terminus: a fixed tail appended
Rule: protein stability index of 2 or more gives y; anything lower gives n.

>  <alteration>
I11W

>  <category>
y

$$$$

input: Hi team, for `I11H` , is the recorded protein stability index at or above 2?
output: y

input: Please indicate if the recorded protein stability index for `V20H` meets or exceeds 2.
output: y

input: Kindly determine if protein stability index recorded for `T19M` is above or exactly 2.
output: y

input: Reported protein stability index at or above 2? `F1C`
output: y

input: Entry `S10L` : is its protein stability index no less than 2?
output: n
